# reported Percent Effect; entries follow
system: Wolbachia pipientis; assay: Anti-Wolbachia Cell-Based Screen; format: functional; set-up: scale not given: in the data most compounds retested in dose-response had high values; details: 5 µM
In all, about 48,000 compounds went through this assay and about 13,000 (27%) showed an effect of 50% or more. The list shows a part of the results.
Unit % implied. Number only.

Worked examples, 2 compounds total:
>  <compound>
CN(C)C(=O)COC[C@]12COC[C@H]1CN(CC1CCC1)C2.O=C(O)C(F)(F)F

>  <experimental target>
Wolbachia pipientis

>  <property label>
Percent Effect

>  <observed>
-8.978

$$$$
>  <compound>
CN(C)C(=O)COC[C@]12COC[C@H]1CN(CCc1ccccc1)C2.O=C(O)C(F)(F)F

>  <experimental target>
Wolbachia pipientis

>  <property label>
Percent Effect

>  <observed>
103

$$$$

The compound listed as COC1(CNS(=O)(=O)c2ccccc2Cl)CCSC1 (configuration not stated) shows Percent Effect equal to -2.993

Short answer for CCCc1nnsc1C(=O)N1CCN(CC(O)C2CC2)CC1.Cl (configuration not stated) : Percent Effect was -6.099

Sample CCC(CNC(=O)Cc1cc(C)on1)Oc1cccc(F)c1 (configuration not stated) ; Percent Effect observed: 6.278

According to the records, this compound COc1ccccc1C1(O)CCCN(C(=O)c2csc(C(C)=O)c2)C1 (configuration not stated) displays Percent Effect of 80.49

compound Cc1nc(CN2Cc3cn(C)nc3C(COCC3CC3)C2)cs1 (configuration not stated) , Percent Effect observed: -15.47

* * *

Percent Effect: recorded values
tested on: Wolbachia pipientis; test: Anti-Wolbachia Cell-Based Screen; type: functional; set-up: scale not given: in the data most compounds retested in dose-response had high values; details: 5 µM
Hit rate of the full screen: of about 48,000 compounds, about 13,000 (27%) showed an effect of 50% or more. Some of the results follow.

Take a look at these entries with their results.
>  <molecule>
CN(C)c1cc(CNC(=O)c2ccc(=O)[nH]n2)ccn1

>  <Percent Effect>
0.8371%

$$$$
>  <molecule>
Cc1nn(C)c(C)c1C1CCCN1C(=O)CCNc1ncccn1 (centres undefined)

>  <Percent Effect>
2.112%

$$$$
>  <molecule>
CN(C)C(=O)N1CCC2(CCCN(CCOc3ccccc3)C2)C1.O=C(O)C(F)(F)F (centres undefined)

>  <Percent Effect>
102.1%

$$$$

Next molecule, Percent Effect to be filled in.
Record Cc1ccc(CN2CCC3(CCCN(C(=O)N(C)C)C3)C2)cc1 (centres undefined) ; system Wolbachia pipientis; Percent Effect = -1.979%

* * *

system: Wolbachia pipientis; test: Anti-Wolbachia Cell-Based Screen; format: functional; design: scale not given: in the data most compounds retested in dose-response had high values; details: 5 µM
Hit rate of the full screen: of about 48,000 compounds, about 13,000 (27%) showed an effect of 50% or more. The list shows a part of the results.
property label: Percent Effect (%)
Please give a number only; it is taken to be in %.

Use the examples below as a reference point.
>  <molecule>
CCCOc1cccc(CNC(=O)CN2CCN(C)CC2C)c1 (stereo unspecified)

>  <unit info>
%

>  <Percent Effect>
-6.684

$$$$
>  <molecule>
COCCN1CCC2(CC1)CC(OCC1CC1)c1ccc(C)cc12 (stereo unspecified)

>  <unit info>
%

>  <Percent Effect>
-29.1

$$$$
>  <molecule>
CN1CCOC(CNCc2cccc(OC(F)(F)F)c2)C1 (stereo unspecified)

>  <unit info>
%

>  <Percent Effect>
76.13

$$$$
>  <molecule>
Cc1n[nH]c(C2CN(C(=O)c3ccc(=O)n(C)c3)CCO2)n1 (stereo unspecified)

>  <unit info>
%

>  <Percent Effect>
-1.43

$$$$
>  <molecule>
CCC1CN(C(=O)c2cnc(-c3cnn(C)c3)s2)CCO1 (stereo unspecified)

>  <unit info>
%

>  <Percent Effect>
-21.53

$$$$

The value of Percent Effect measured for the molecule CN1CCOC(CNC(=O)CCCOCCc2ccccc2)C1 (stereo unspecified) turned out to be -8.698

The molecule identified as `O=C(Nc1ccc(-n2cccn2)cc1)N1C[C@H](O)[C@@H](N2CCOCC2)C1` registered its Percent Effect at 1.189

Percent Effect reported for this molecule `Cc1nc(S(=O)(=O)CCn2cccn2)n(C2CCCCC2)c1C` : -17.58

Entry under test: NC(=O)C(NC1CCN(CC2CCCCC2)CC1)c1ccc(F)cc1 (stereo unspecified) . Its Percent Effect was 3.018

# Percent Effect of `COCCN1CCN(CC2(O)CCCCC2)CC1` = -7.115

Form field Percent Effect, entry Cn1nnc2c1C(COCC1CC1)CN(C(=O)CC1=CCCCC1)C2 (stereo unspecified) : -19.61

Reported Percent Effect ( CNC(=O)c1ccc(C2CN(C(=O)c3cnn(C)c3)CCO2)nc1 (stereo unspecified) ) = 109.7

Briefly, Percent Effect measured for `Cc1csc(CN(C)C(=O)c2cccc(CCC(C)(C)O)c2)n1` : -10.56

Just so you know, measured Percent Effect for O=C(c1ccncc1F)N1CCOC(c2cccc(O)c2)C1 (stereo unspecified) came out at -9.281

Summary for this molecule, `COc1cccc(CN(C)C(=O)CCC(=O)c2ccc(Cl)cc2)c1OC` : Percent Effect is -4.229

The reported value for `CN(CCC(F)(F)F)c1nc2ccccc2c(=O)[nH]1` in terms of Percent Effect is -5.931

* * *

test system: Wolbachia pipientis; experiment: Anti-Wolbachia Cell-Based Screen; assay type: functional; parameters: scale not given: in the data most compounds retested in dose-response had high values; details: 5 µM
Among all 48,000 compounds or so, about 13,000 (27%) showed an effect of 50% or more. This is one part of the list.
property label: Percent Effect (%)
Only the number, expressed in %, is required.

Worked examples, 10 compounds total:
>  <compound>
CC1CN(C)c2ccccc2CN1C(=O)c1cscn1 (stereo not given)

>  <Percent Effect (%)>
-10.99

$$$$
>  <compound>
CC(=O)N1CC(C)CN(Cc2ccon2)c2ccccc21 (stereo not given)

>  <Percent Effect (%)>
7.641

$$$$
>  <compound>
CCN(C(=O)Cc1ccc(NCc2ncc[nH]2)cc1)c1ccccc1

>  <Percent Effect (%)>
-2.92

$$$$
>  <compound>
CC(c1ccccc1)N(C)CC(=O)NCCC#N (stereo not given)

>  <Percent Effect (%)>
10.46

$$$$
>  <compound>
CCn1cc(CN(C)C(=O)c2cccc(CCC(C)(C)O)c2)cn1

>  <Percent Effect (%)>
-2.58

$$$$
>  <compound>
CC1CN(C(=O)c2cscn2)c2ccccc2S1 (stereo not given)

>  <Percent Effect (%)>
-14.12

$$$$
>  <compound>
COCc1nc(C(=O)NS(=O)(=O)c2ccc(F)c(F)c2)cs1

>  <Percent Effect (%)>
-13.23

$$$$
>  <compound>
COCCNC(=O)Cn1c(-c2ccco2)cc2cccnc21

>  <Percent Effect (%)>
97.97

$$$$
>  <compound>
CCOCCN1CCN(CC(=O)NC2(C#N)CCCC2)CC1C (stereo not given)

>  <Percent Effect (%)>
0.8038

$$$$
>  <compound>
COCCCNC(=O)Cn1nnc(-c2cc3ccccc3o2)n1

>  <Percent Effect (%)>
-9.995

$$$$

Measured on Wolbachia pipientis, COc1cccc(OCCNC(=O)CN2CCN(C)CC2C)c1 (stereo not given) has a documented Percent Effect of 0.3417

* * *

tested on: Wolbachia pipientis; assay: Anti-Wolbachia Cell-Based Screen; format: functional; parameters: scale not given: in the data most compounds retested in dose-response had high values; conditions: 5 µM
Hit rate of the full screen: of about 48,000 compounds, about 13,000 (27%) showed an effect of 50% or more. This is one part of the list.
Measured Percent Effect accompanies every entry in the list below.
Only the number, expressed in %, is required.

Worked set:
>  <compound>
Cc1cc(C)cc(N2CCN(C(=O)C3CN(C)C(=O)N3)CC2=O)c1 (stereo not drawn)

>  <Percent Effect, %>
83.41

$$$$
>  <compound>
COC(C(=O)N1CCN(c2cccc(Cl)c2)C(=O)C1)c1ccccc1 (stereo not drawn)

>  <Percent Effect, %>
-8.872

$$$$
>  <compound>
Cc1cnn(C2CN(C(C)c3nc(-c4ccccc4)no3)C2)c1 (stereo not drawn)

>  <Percent Effect, %>
-0.8523

$$$$

Turning to the following compound.
Measured Percent Effect of `CC(C)N(C(=O)c1csc(-c2ccoc2)n1)C1CCOCC1` : -5.774

* * *

system: Wolbachia pipientis; experiment: Anti-Wolbachia Cell-Based Screen; assay type: functional; design: scale not given: in the data most compounds retested in dose-response had high values; conditions: 5 µM
The whole screen tested about 48,000 compounds, of which about 13,000 (27%) showed an effect of 50% or more. The list shows a part of the results.
property label: Percent Effect (%)
Kindly answer with a numeric value in %, unit omitted.

>  <compound>
COCC1CN(Cc2cc(C)on2)Cc2cn(CC3CC3)nc21 (centres undefined)

>  <observed>
-5.451

$$$$
>  <compound>
COc1ccc(C(=O)Nc2ccccc2-c2ccc(=O)n(C)n2)nn1

>  <observed>
-4.369

$$$$

Notebook: CNC(=O)c1ccc(C2CN(C(=O)c3coc(C)n3)CCO2)nc1 (centres undefined) , Percent Effect read as 128.9

Just so you know, measured Percent Effect for `CCc1nc2ccccc2c(=O)n1CC1(O)CCNCC1.Cl` came out at 113.9

// Percent Effect value for CCc1nccn1C1CCCN(C(=O)c2cnn3ccc(C)nc23)C1 (centres undefined) : -1.055

Measured Percent Effect, O=C(c1cccc2c1OCCO2)N1CCCC(n2ccnc2)C1 (centres undefined) : -8.704

response.value for `Cc1noc(-c2ccnc(N3CCCN(C4CCOCC4)CC3)c2)n1` (field: Percent Effect) = -8.48

The measured Percent Effect associated with `O=c1[nH]c(CCN2CCN(CC(F)(F)F)CC2)nc2ccccc12` reads -18.37

The compound listed as COCCCN1CCCN(C(C)C(=O)Nc2cccc(I)c2)CC1 (centres undefined) shows Percent Effect equal to 23.62

The compound Cc1cccc(N2CCOCC3(C2)CN(c2cncnc2)C(=O)CO3)n1 (centres undefined) showed Percent Effect equal to 105.8

Value of measured Percent Effect for the entry CN(C)C(=O)C1CN(c2ccncn2)CCN(C2CCOCC2)C1 (centres undefined) : 126.1

Sample CC(C)(C)C1CCC(NCCN2CCOCC2)CC1 (centres undefined) ; Percent Effect observed: -13.34

// Percent Effect value for `CC(C)c1nc(CN(C)C(=O)CNS(=O)(=O)c2cccs2)cs1` : -16.12

Form: compound = CN1CC2(COCCN(c3ncccn3)C2)OCC1=O (centres undefined) ; Percent Effect = -2.048

Form field Percent Effect, entry CNC(=O)C1CN(c2ccnc(C)n2)CCN(C2CCOCC2)C1 (centres undefined) : 102.7

Recorded Percent Effect (compound CC(C)c1ccc(CNC(C)c2ccc(S(=O)(=O)N(C)C)cc2)cc1 (centres undefined) ): 1.332

// sample `Cc1nccnc1N1C[C@H]2CN(C3CCOCC3)C[C@@]2(C(=O)O)C1` , its Percent Effect was -7.502

Sure, the documented Percent Effect for Cc1c(C)c2c(c(C)c1O)CC[C@](C)(C(=O)O)O2 [(R)-TROLOX] is 132.5
